# PROTOCOL_DESCRIPTION: Acute Toxicity Study (single oral dose, mortality)
# Type: in vivo, rat (Sprague-Dawley)
# MEASUREMENT_SETUP: rat, in vivo, po, 2400 umol/kg, 2.4 millimoles/Kg p.o., rat, both sexes; read-out: mortality rate
Counter-ions that a name gives are not always drawn.
READOUT_TYPE: mortality at 360 h
Answer format: value, then unit.

Query: Could you tell me which mortality at 360 h is on file for Cn1cccc1C(=O)C(C#N)C(=O)Nc1ccccc1 (stereo not shown) [triethanolamine salt] ?
Response: 50%
